Measured melting point of individual entries
REPORTED_METRIC: melting point

molecule=O=C(O)c1cccc(-c2ccoc2)c1 value="144 to 146 °C"
molecule=O=C(O)c1nnn(-c2ccc(Br)cc2)c1C(F)(F)F value="169 to 171 °C"
molecule=Cc1cc(C(=O)CCl)c(C)n1-c1ccc(OC(F)(F)F)cc1 value="76 to 80 °C"
molecule=O=C(O)C=Cc1ccc(S(=O)(=O)Nc2cccc(C(F)(F)F)c2)cc1 value="224 to 226 °C"
molecule=O=C(O)c1cn2ccccc2n1 value="242 to 244 °C"
molecule=Nc1ccccc1Oc1ccncc1 value="98 to 100 °C"
molecule=CC(=O)c1c(C#N)c2n(c1C)CCC2 value="132 to 134 °C"
molecule=Cc1cc(C)c(CN)c(=O)[nH]1 value="139 to 141 °C"
molecule=Cc1ccc2c(Cl)c(C(=O)O)sc2c1 value="271 to 273 °C"
molecule=CCOc1ccc(S(=O)(=O)NCC(=O)O)cc1 value="139 to 141 °C"
molecule=CNS(=O)(=O)c1ccc(N)cc1C value="117 to 119 °C"
molecule=O=C(CCl)NCCc1c[nH]c2ccccc12 value="82 to 84 °C"
molecule="CC(=O)NC(Cc1c[nH]c2cc(F)ccc12)C(=O)O (stereo not drawn)" value="181 to 183 °C"

====

REPORTED_METRIC: melting point

compound=Cc1ccc(S(N)(=O)=O)c(F)c1 reported_metric="melting point" value="138 to 140 °C"
compound=CC(C)(C)OC(=O)Nc1ncon1 reported_metric="melting point" value="165 to 167 °C"
compound=Cc1ccc(S(C)(=O)=O)c(N)c1 reported_metric="melting point" value="103 to 105 °C"
compound=COCCN1C(=O)C(=O)c2ccc(Br)cc21 reported_metric="melting point" value="139 to 141 °C"
compound=COc1ccc(C(C)=O)cc1CN1CCOCC1 reported_metric="melting point" value="58 to 60 °C"
compound=CCOC(=O)c1cnn(-c2ncccn2)c1N reported_metric="melting point" value="181 to 183 °C"
compound=CN1CC(=O)Nc2ccccc2C1=O reported_metric="melting point" value="249 to 251 °C"
compound=N#CCS(=O)(=O)c1cc(Cl)ccc1Cl reported_metric="melting point" value="114 to 116 °C"
compound=O=C(Nc1ccccc1)c1ccc(CBr)cc1 reported_metric="melting point" value="179 to 181 °C"
compound=NC(=O)C1CCN(CC(=O)c2ccc(Cl)cc2)CC1 reported_metric="melting point" value="164 to 166 °C"
compound=Cc1ccccc1Cc1nn[nH]n1 reported_metric="melting point" value="156 to 158 °C"
compound=Cc1cc(C(=O)O)c(C)n1C1CCCCC1 reported_metric="melting point" value="204 to 206 °C"
compound=O=C(CCl)c1ccc(Oc2ccccc2)cc1 reported_metric="melting point" value="54 to 56 °C"
compound=Cc1ccc2c(C)cc(NN)nc2c1C reported_metric="melting point" value="191 to 193 °C"
compound=O=C(O)CCCCCNC1=NS(=O)(=O)c2ccccc21 reported_metric="melting point" value="189 to 191 °C"
compound=CCOc1ccc(N)c(C(N)=O)c1 reported_metric="melting point" value="148 to 150 °C"
compound="c1ccc(N2CCN(CC3CCCNC3)CC2)nc1 (stereo unspecified)" reported_metric="melting point" value="73 to 75 °C"
compound=CCOc1ccc(CCC(=O)O)cc1 reported_metric="melting point" value="102 to 104 °C"
compound=Nc1ncc(-c2cccc(Cl)c2)s1 reported_metric="melting point" value="143 to 145 °C"
compound=COc1ccc(NC(=O)CC#N)cc1Cl reported_metric="melting point" value="110 to 112 °C"
compound=O=C(Nc1ccccc1[N+](=O)[O-])c1ccc2ccccc2n1 reported_metric="melting point" value="73 to 75 °C"
compound=Cc1cc(-c2cc(C(=O)O)c3c(C)noc3n2)c(C)s1 reported_metric="melting point" value="256 to 258 °C"
compound="CC(=O)c1ccc(S(=O)(=O)N2CCCCC2C(=O)O)cc1 (stereo unspecified)" reported_metric="melting point" value="132 to 134 °C"
compound=O=C(O)CN(CCCCCCN(CC(=O)O)CC(=O)O)CC(=O)O reported_metric="melting point" value="237 to 241 °C"
compound="CC1CCCC(C)N1C(=O)CCl (stereo unspecified)" reported_metric="melting point" value="71 to 73 °C"
compound=OCc1cc(Cl)c2nccn2c1 reported_metric="melting point" value="169 to 171 °C"
compound=O=C(CO)N1CCOCC1 reported_metric="melting point" value="77 to 79 °C"
compound=Nc1cc(N2CCOCC2)c(F)cc1[N+](=O)[O-] reported_metric="melting point" value="185 to 187 °C"
compound=COC(=O)c1ccc(C=CC(=O)O)cc1 reported_metric="melting point" value="236 to 238 °C"
compound=O=C(NC1CC1)c1ccc(Br)cc1 reported_metric="melting point" value="151 to 153 °C"
compound=O=C(O)c1cccc(=O)[nH]1 reported_metric="melting point" value="239 to 241 °C"
compound=COC(=O)c1ccc(Br)c(S(=O)(=O)Cl)c1 reported_metric="melting point" value="102 to 104 °C"
compound=CS(=O)(=O)CCOc1cccc(N)c1 reported_metric="melting point" value="79 to 81 °C"
compound=CC(=O)c1nnn(-c2ccc(Cl)cc2)c1C reported_metric="melting point" value="113 to 115 °C"
compound="NS(=O)(=O)C1CCOC1 (stereo unspecified)" reported_metric="melting point" value="85 to 87 °C"
compound=O=C(O)Cc1c[nH]c2ccc(Cl)cc12 reported_metric="melting point" value="157 to 159 °C"
compound=O=c1[nH]c(Cl)cc2ccccc12 reported_metric="melting point" value="214 to 216 °C"
compound="COC1CC(C(=O)O)N(C(=O)OC(C)(C)C)C1 (stereo unspecified)" reported_metric="melting point" value="79 to 81 °C"
compound=CNC(=O)c1c(Cl)ccc(S(=O)(=O)NC)c1Cl reported_metric="melting point" value="231 to 233 °C"
compound=O=C1Nc2cc(SCc3ccccc3)ccc2C1=O reported_metric="melting point" value="248 to 250 °C"
compound="O=C1NC(=O)C(c2ccc(Cl)cc2Cl)N1 (stereo unspecified)" reported_metric="melting point" value="179 to 181 °C"
compound=O=S(=O)(Cl)c1ccc2c(Cl)ccc(Cl)c2c1 reported_metric="melting point" value="127 to 129 °C"
compound="CCCC(NCCC(=O)Nc1cc(C)on1)C(=O)O (stereo unspecified)" reported_metric="melting point" value="227 to 229 °C"
compound=CCOC(=O)CS(N)(=O)=O reported_metric="melting point" value="62 to 64 °C"
compound="NC(=O)C1CCCN(c2ccc(N)cn2)C1 (stereo unspecified)" reported_metric="melting point" value="168 to 170 °C"
compound=CCc1nc2cc(N)ccc2o1 reported_metric="melting point" value="69 to 71 °C"
compound="O=C(O)C1(O)CCSC1 (stereo unspecified)" reported_metric="melting point" value="99 to 101 °C"
compound=Brc1cnc2ncnn2c1 reported_metric="melting point" value="184 to 186 °C"
compound=ClCc1nc(-c2ccccn2)no1 reported_metric="melting point" value="102 to 104 °C"
compound="Cc1n[nH]c(C)c1C(C)CC(=O)O (stereo unspecified)" reported_metric="melting point" value="195 to 197 °C"
compound=Nc1cccc(-n2ccc(C(=O)O)n2)c1 reported_metric="melting point" value="249 to 251 °C"
compound=O=C(O)c1ccccc1SC(F)(F)F reported_metric="melting point" value="120 to 122 °C"
compound=CSc1ccc([N+](=O)[O-])c(C(=O)O)c1 reported_metric="melting point" value="176 to 178 °C"
compound="CC1NCCNC1=O (stereo unspecified)" reported_metric="melting point" value="65 to 67 °C"
compound="O=C(O)CC1COC(=O)C1 (stereo unspecified)" reported_metric="melting point" value="83 to 85 °C"
compound=Cn1nc(SCC(=O)O)c(=O)n(C)c1=O reported_metric="melting point" value="185 to 187 °C"

====

Measured melting point of individual entries
REPORTED_METRIC: melting point

compound=O=C(O)c1cc(S(=O)(=O)N2CCCC2)c[nH]1 reported_metric="melting point" value="175 to 177 °C"
compound=Nc1ccc(Oc2ccc(Cl)cc2)nc1 reported_metric="melting point" value="89 to 91 °C"
compound=O=C(O)c1cccnc1C1CC1 reported_metric="melting point" value="196 to 198 °C"
compound=NC(=O)c1ccc(N=C=S)cc1 reported_metric="melting point" value="189 to 191 °C"
compound=NC(=O)c1cccc(C(=O)O)n1 reported_metric="melting point" value="249 to 251 °C"
compound=Nc1nc(Cl)ncc1[N+](=O)[O-] reported_metric="melting point" value="209 to 211 °C"
compound="CC(Cl)C(=O)Nc1cccc(S(=O)(=O)N2CCCCC2)c1 (centres undefined)" reported_metric="melting point" value="163 to 165 °C"
compound=CC(C)c1cc(C(=O)O)nn1-c1ccccn1 reported_metric="melting point" value="146 to 148 °C"
compound=COc1cc(C=O)cc2c1OCCO2 reported_metric="melting point" value="81 to 83 °C"
compound=O=Cc1cn(-c2cccc(Cl)c2Cl)nn1 reported_metric="melting point" value="139 to 141 °C"
compound="CC1CC(C(=O)O)CC(C)O1 (centres undefined)" reported_metric="melting point" value="109 to 111 °C"
compound=Cc1ccc(C(=O)O)c(Sc2ccccc2)n1 reported_metric="melting point" value="169 to 171 °C"
compound=CCOC(=O)c1c(-c2ccc(C)s2)csc1N reported_metric="melting point" value="93 to 95 °C"
compound="NC(Cc1ccccc1)C(=O)Nc1ccccc1 (centres undefined)" reported_metric="melting point" value="76 to 78 °C"
